- Tested on: Clostridium sporogenes DSM 1664
- protocol summary: growth (OD595) fold change vs plate DMSO controls (fold change (ratio)); higher = more growth
- settings: incubation time: 27 h, anaerobic, 37 °C
Structures can show the parent of a compound that is named as a salt.
measurement kind: growth
Numbers only.

Examples with answers:
CC1=C(C)C(=O)C(C(CCCCCC(=O)O)c2ccccc2)=C(C)C1=O (stereo not given) [Seratrodast] (20 µM) = 0.927
CCCCCOC(=O)Nc1nc(=O)n([C@@H]2O[C@H](C)[C@@H](O)[C@H]2O)cc1F [Capecitabine] (20 µM) = 1.12
O=c1[nH]c(=O)n(C2CCCO2)cc1F (stereo not given) [Tegafur] (20 µM) = 1.08
CCc1nn(CCCN2CCN(c3cccc(Cl)c3)CC2)c(=O)n1CCOc1ccccc1 [Nefazodone hydrochloride] (20 µM) = 1.05
CCN(CC)CCOc1ccc(C(=C(Cl)c2ccccc2)c2ccccc2)cc1 [(Z,E) Clomiphene citrate] (20 µM) = 1.06
CC(=O)N(O)CCCCCNC(=O)CCC(=O)N(O)CCCCCNC(=O)CCC(=O)N(O)CCCCCN [Deferoxamine mesylate] (20 µM) = 0.934
COc1ccc([C@@H]2Sc3ccccc3N(CCN(C)C)C(=O)[C@@H]2OC(C)=O)cc1 [Diltiazem hydrochloride] (20 µM) = 1.13
O=c1[nH]cnc2c1ncn2[C@H]1CC[C@@H](CO)O1 [Didanosine] (20 µM) = 1.07
CCCC1C(=O)N2C(N(C)C)=Nc3ccc(C)cc3N2C1=O (stereo not given) [Azapropazone] (20 µM) = 1.1

Given the entry CN1CCN(C2Cc3ccccc3Sc3ccc(Cl)cc32)CC1 (stereo not given) [Octoclothepin maleate salt] (20 µM) , what growth was observed with Clostridium sporogenes DSM 1664? 0.962
